- experimental_system: JAK1 (Homo sapiens, UniProt P23458)
- Construct: made in house; host or cells: SF9 insect cells (baculovirus)
- Sequence (P23458 852-1154): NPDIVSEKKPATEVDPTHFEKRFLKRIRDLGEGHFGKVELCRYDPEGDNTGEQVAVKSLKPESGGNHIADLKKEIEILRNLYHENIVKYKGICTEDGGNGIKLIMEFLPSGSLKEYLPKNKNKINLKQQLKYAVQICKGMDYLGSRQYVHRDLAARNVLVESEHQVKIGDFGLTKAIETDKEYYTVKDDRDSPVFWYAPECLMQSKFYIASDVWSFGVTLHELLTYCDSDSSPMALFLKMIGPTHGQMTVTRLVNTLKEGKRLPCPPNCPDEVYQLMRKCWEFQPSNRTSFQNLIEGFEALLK
- test_name: JAK1 inhibition (Table 4)
- Assay type: biochemical
- assay_conditions: read-out: JAK1 Ki
pKi: −log10 of the molar value.
attribute_measured: pKi

Input line: Entry C[C@@H](O)c1nc2cnc3[nH]ccc3c2n1C1CCN(CCF)CC1 [Example 873] needs its pKi filled in; supply it.
Output line: 7.68

Input line: Could you please provide reported pKi for O=C(Cc1nc2cnc3[nH]ccc3c2n1C1CCCOC1)NC1CCC1 (racemic) [Example 965] ? Thanks!
Output line: 7.50

Input line: Give me measured pKi, please, for this compound: C[C@@H](O)c1nc2cnc3[nH]ccc3c2n1[C@H]1CC[C@@H](N2CCC(C#N)CC2)CC1 (relative stereo) [Example 611]
Output line: 8.16

Input line: Please look at this compound and report its pKi: CS(=O)(=O)CC[C@H]1CC[C@H](n2c(CO)nc3cnc4[nH]ccc4c32)CC1 [Example 652]
Output line: 9.09

a: CC(=O)N1CC[C@@H](n2cnc3cnc4[nH]ccc4c32)C1 [Example 188]
b: C[C@@H](O)c1nc2cnc3[nH]ccc3c2n1C1CCC(n2cncn2)CC1 (some centres unmarked) [Example 779]
c: Cc1nc2cnc3[nH]ccc3c2n1[C@@H]1CC[C@@H](NC(C)CC#N)C1 (some centres unmarked) [Example 725]
d: C[C@@H](O)c1nc2cnc3[nH]ccc3c2n1[C@H]1CC[C@H](NCC(F)(F)F)CC1 [Example 614]
Input line: Please list these compounds in decreasing order of pKi. Provide the labels, sequenced as the question asks.
Output line: d, b, c, a

====

- experimental_system: JAK1 (Homo sapiens, UniProt P23458)
- Construct: made in house; host or cells: SF9 insect cells (baculovirus)
- test_name: JAK1 inhibition (Table 4)
- Format: biochemical
- assay_conditions: read-out: JAK1 Ki
pKi: −log10 of the molar value.
attribute_measured: pKi

I: O=C(N[C@H]1CC[C@H](n2c(CO)nc3cnc4[nH]ccc4c32)CC1)OCC1CC1 [Example 601]
II: N#Cc1ccc(CN2CCC[C@@H](n3cnc4cnc5[nH]ccc5c43)C2)cc1 [Example 40]
Input line: For I and II , which recorded pKi is lower? // caller expects the label of the chosen entry
Output line: II
(II: 8.20, I: 8.41)

a: CC1CN(S(C)(=O)=O)CCC1n1cnc2cnc3[nH]ccc3c21 (racemic) [Example 344]
b: CNc1nc2cnc3[nH]ccc3c2n1C1CCN(CC(F)(F)F)CC1 [Example 658]
Input line: When their pKi values are compared, which is larger, a or b ? Choose, then provide that item's label.
Output line: b
(b: 8.45, a: 7.80)

====

- experimental_system: TYK2 (Homo sapiens)
- Sequence (P29597 873-1187): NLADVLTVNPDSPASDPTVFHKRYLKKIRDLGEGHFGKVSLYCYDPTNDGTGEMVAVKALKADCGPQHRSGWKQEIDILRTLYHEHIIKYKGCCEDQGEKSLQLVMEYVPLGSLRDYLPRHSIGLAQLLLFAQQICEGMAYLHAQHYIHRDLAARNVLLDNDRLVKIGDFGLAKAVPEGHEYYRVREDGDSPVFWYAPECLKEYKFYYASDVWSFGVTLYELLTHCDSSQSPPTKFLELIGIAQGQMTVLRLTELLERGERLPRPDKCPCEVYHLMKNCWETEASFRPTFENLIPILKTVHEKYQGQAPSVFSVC
pKi: −log10 of the molar value.
attribute_measured: pKi

Input line: Give the reported value of pKi for this record: OCC(O)c1nc2cnc3[nH]ccc3c2n1C1CCCCC1 (racemic)
Output line: 8.28

a: Cc1nc2cnc3[nH]ccc3c2n1C1CCN(CC(O)(C(F)(F)F)C(F)(F)F)CC1
b: C[C@@H](O)c1nc2cnc3[nH]ccc3c2n1C1CCN(CCF)CC1
c: C[C@@H](O)c1nc2cnc3[nH]ccc3c2n1[C@H]1CC[C@H](CC#N)CC1
Input line: Arrange items by their pKi values in increasing order. Write the labels in rank order as requested.
Output line: b, a, c
(b: 6.37, a: 7.96, c: 9.44)

====

- experimental_system: JAK2 (Homo sapiens)
- Construct: made in house; host or cells: SF9 insect cells (baculovirus)
- Sequence (O60674 812-1132): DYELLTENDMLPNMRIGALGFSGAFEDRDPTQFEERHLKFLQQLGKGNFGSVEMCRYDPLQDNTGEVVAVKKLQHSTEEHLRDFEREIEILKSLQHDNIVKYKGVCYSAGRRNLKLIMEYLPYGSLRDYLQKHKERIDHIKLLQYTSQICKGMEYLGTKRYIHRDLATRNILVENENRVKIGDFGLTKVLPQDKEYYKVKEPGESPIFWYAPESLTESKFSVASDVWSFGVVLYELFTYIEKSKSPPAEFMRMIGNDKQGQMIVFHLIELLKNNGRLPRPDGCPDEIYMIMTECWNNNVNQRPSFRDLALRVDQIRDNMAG
- test_name: JAK2 inhibition (Table 4)
- Type: biochemical
- assay_conditions: read-out: JAK2 Ki
pKi: −log10 of the molar value. Counter-ions that a name gives are not always drawn.
attribute_measured: pKi

Worked cases, answers included:
Input line: Supply reported pKi belonging to this compound: `c1cc(N2CCC[C@@H](n3cnc4cnc5[nH]ccc5c43)C2)ncn1`
Output line: 7.86

Input line: Entry `C[C@@H](O)c1nc2cnc3[nH]ccc3c2n1C1CCN(c2cccc(C#N)n2)CC1` needs its pKi filled in; supply it.
Output line: 7.58

Input line: Return pKi (reported value) for this compound: `CC(C)OC(=O)N[C@H]1CC[C@H](n2cnc3cnc4[nH]ccc4c32)CC1`
Output line: 7.58

Input line: Recall and state the measured pKi for CS(=O)(=O)NCCc1nc2cnc3[nH]ccc3c2n1C1CC2CCC1C2 (stereo not shown) .
Output line: 8.25

a: C[C@@H](O)c1nc2cnc3[nH]ccc3c2n1C1CCC(n2ccnn2)CC1 (stereo partly shown)
b: Cc1nc2cnc3[nH]ccc3c2n1[C@H]1CC[C@H](N2CCNC2=O)CC1 [Example 598, formic acid salt]
Input line: Of a and b , which one carries the higher reported pKi? Kindly give the label for the entry you pick.
Output line: b

I: NC1CCCC(n2cnc3cnc4[nH]ccc4c32)C1 (single isomer, unassigned) [Example 365]
II: CS(=O)(=O)NCc1nc2cnc3[nH]ccc3c2n1C1CCN(Cc2ccccc2)CC1(F)F (racemic)
III: Cc1nc2cnc3[nH]ccc3c2n1[C@@H]1CCCC(=O)C1
Input line: Hey, quick one: sort these by pKi, largest value first please. Your task in answering is to list the labels in the requested order.
Output line: II, III, I

a: CN1CC(c2nc3cnc4[nH]ccc4c3n2C2CCN(CCC#N)CC2)CC1=O (racemic)
b: CN(C)c1nc2cnc3[nH]ccc3c2n1C1CCN(CCC#N)CC1
c: CC1(n2nnc3cnc4[nH]ccc4c32)CCN(CCC#N)CC1
d: c1cc2c(ncc3ncn(C4CCc5[nH]ncc5C4)c32)[nH]1 (stereo not shown)
Input line: # rank_down: sort by pKi, max first Lab note: record answer as labels in requested order.
Output line: d, b, a, c
(d: 7.99, b: 7.11, a: 6.86, c: 6.44)

1: CC1CNCCC1n1cnc2cnc3[nH]ccc3c21 (racemic) [Example 306]
2: CC(C)CC(=O)N1CCC(n2cnc3cnc4[nH]ccc4c32)CC1
3: CC(C)(C)COCc1nc2cnc3[nH]ccc3c2n1C1CCN(CCC#N)CC1
4: N#Cc1ccc(S(=O)(=O)N2CCC(n3cnc4cnc5[nH]ccc5c43)CC2)cc1
Input line: With regard to pKi, arrange the entries in ascending order, please. The reply should contain the labels ordered as requested.
Output line: 3, 1, 2, 4

P: CC(=O)NC1CCCC(n2cnc3cnc4[nH]ccc4c32)C1 (single isomer, unassigned) [Example 478]
Q: Cc1nc2cnc3[nH]ccc3c2n1[C@@H]1CCCN(C(=O)CC#N)C1
Input line: Hey, between P and Q which has a smaller measured pKi? Give the chosen item's label as your response.
Output line: P
(P: 6.90, Q: 8.87)

P: Cc1ccnn1CCc1nc2cnc3[nH]ccc3c2n1C1CCN(CCC#N)CC1
Q: CS(=O)(=O)N1CCC(n2c(-c3cccnc3)nc3cnc4[nH]ccc4c32)CC1
R: C[C@@H](O)c1nc2cnc3[nH]ccc3c2n1C1CCN(Cc2ccn[nH]2)CC1
S: C[C@@H](O)c1nc2cnc3[nH]ccc3c2n1[C@@H]1CCNC1
Input line: Highest pKi first, then in falling order down to the smallest. Reply with the labels, ordered as the question asks.
Output line: R, P, Q, S
(R: 7.67, P: 7.09, Q: 6.61, S: 5.83)

a: C[C@@H](O)c1nc2cnc3[nH]ccc3c2n1C1CCC(n2cncn2)CC1 (stereo partly shown)
b: N#Cc1cccc(CNC2CC(n3cnc4cnc5[nH]ccc5c43)C2)c1 (stereo not shown)
Input line: Two entries are listed, a and b . Which one carries the higher pKi? Lab note: record the label of whichever item you select.
Output line: b

a: Cc1nc2cnc3[nH]ccc3c2n1[C@@H]1CC[C@@H](NC(=O)OC(C)(C)C)C1
b: OC(CN1CCC(n2cnc3cnc4[nH]ccc4c32)CC1)(C(F)(F)F)C(F)(F)F
c: CC(=O)N(C)CCc1nc2cnc3[nH]ccc3c2n1C1CCN(CCC#N)CC1
d: OCCc1nc2cnc3[nH]ccc3c2n1[C@@H]1CCCOC1
Input line: Reorder the items by pKi, least to greatest. State the ranking by listing the labels in the requested order.
Output line: d, c, a, b
